- assay.overview: qHTS to identify inhibitors of the type 1 interferon - major histocompatibility complex class I in skeletal muscle: primary screen against the NCATS Mechanism Interrogation Plate v5.0 (MIPE) Libary (AID 1347411); also: nearly all actives have a fitted effect of over 65% in size
- conditions: iHSKM cells + IFN-b, HiBiT-tagged MHC-I luminescence, 24 h; series mostly up to 45.8 µM
Records with an inconclusive call do not appear. Active and inactive are the calls of the source. Calls follow the shape of the dose curve; as a rule, active = well fitted inhibition curve with a large enough effect; inconclusive = small, poorly fitted or top-dose-only effect; inactive = no such curve, though single readings can be large or run the other way.
Outcomes: Y = active, N = inactive

1. CCCN1CCO[C@@H]2c3cc(O)ccc3OC[C@H]21 N
2. Clc1ccccc1C(c1ccccc1)(c1ccccc1)n1cccn1 N
3. CC(C)[C@]12O[C@H]1[C@@H]1O[C@]13[C@]1(O[C@H]1C[C@H]1C4=C(CC[C@@]13C)C(=O)OC4)[C@@H]2O Y
4. CN(C)[C@@H]1C(=O)C(C(N)=O)=C(O)[C@@]2(O)C(=O)C3=C(O)c4c(O)cccc4[C@@](C)(O)[C@H]3[C@H](O)[C@@H]12 N

* * *

- assay.overview: Quantitative High-Throughput drug screen in 47 multiple myeloma cell lines against the NCATS MIPE library collection: KMS11_JCRBsus cell viability assay (AID 1919873); also: nearly all actives have a fitted effect of over 50% in size
- conditions: KMS11 myeloma viability, CellTiter-Glo ATP luminescence, 48 h; series mostly up to 45.8 µM
Records with an inconclusive call do not appear. Calls of active or inactive are those of the source. Calls come from the whole dose curve; as a rule, active = well fitted cell-killing curve with a large enough effect; inconclusive = small, poorly fitted or top-dose-only effect, or effect the other way; inactive = no such curve, though single readings can be large or run the other way.
Outcomes: active, inactive

molecule	class.label
O=C(Oc1ccc([N+](=O)[O-])cc1)N1CCC(C(O)(c2ccc3c(c2)OCO3)c2ccc3c(c2)OCO3)CC1	inactive
C[C@]12COC(=O)C[C@@H]1CC[C@@H]1[C@H]2CC[C@@]2(C)[C@H]1CC[C@]2(C)O	inactive
CC(=O)OCC1=C(C(=O)O)N2C(=O)[C@@H](N)[C@@H]2SC1	inactive
N=c1c2c(-c3ccccc3)c(-c3ccccc3)n(Cc3ccccc3)c2ncn1C1CCC(O)CC1 (centres undefined)	active
c1ccc(CCCN2CCN(CCOC(c3ccccc3)c3ccccc3)CC2)cc1	active
CCNC(=O)CC1N=C(c2ccc(Cl)cc2)c2cc(OC)ccc2-n2c(C)nnc21 (centres undefined)	active
Cc1c(C(=O)c2cccc3ccccc23)c2cccc3c2n1[C@H](CN1CCOCC1)CO3	active
CC1(N2CCC(n3c([C@@H]4CCCNC4)nc4ccccc43)CC2)CCCCCCC1	active
O=S(=O)(CC1CS1)c1ccc(Oc2ccccc2)cc1 (centres undefined)	active
CC=C(C)C(=O)N[C@@H](c1ccccc1)[C@@H](O)C(=O)O[C@H]1C[C@@]2(O)[C@@H](OC(=O)c3ccccc3)[C@@H]3[C@]4(OC(C)=O)CO[C@@H]4C[C@H](O)[C@@]3(C)C(=O)[C@H](OC(C)=O)C(=C1C)C2(C)C	inactive
NC1CC1c1ccccc1 (centres undefined)	inactive
COCC1(CO)C(=O)C2CCN1CC2 (centres undefined)	active
CN(C)NC(=O)CCC(=O)O	inactive
C[C@]12CC[C@@H]3[C@@H](CCC4=CC(=O)CC[C@@H]43)[C@@H]1CC[C@@H]2OC(=O)CCc1ccccc1	inactive
O=C(Nc1ccncc1)C(=O)c1cn(Cc2ccc(Cl)cc2)c2ccccc12	active
COc1cc([C@@H]2c3cc4c(cc3[C@@H](O)C3COC(=O)C32)OCO4)cc(OC)c1O (some centres undefined)	active
CN[C@@H]1Cc2cccc3[nH]c(=O)n(c23)C1	inactive
CC(=O)O[C@@]12CO[C@H]1C[C@H](O)[C@@]1(C)C(=O)[C@H](O)C3=C(C)[C@@H](O)C[C@@](O)([C@@H](OC(=O)c4ccccc4)[C@@H]21)C3(C)C	active
O=c1[nH]c2ccccc2n1C1CCN(Cc2ccc(-c3[nH]c4cc5ncnc5cc4nc3-c3ccccc3)cc2)CC1	active
